Biological target: CAMKK1 (human) (UniProt Q8N5S9)
Sequence (Q8N5S9 whole entry, looked up): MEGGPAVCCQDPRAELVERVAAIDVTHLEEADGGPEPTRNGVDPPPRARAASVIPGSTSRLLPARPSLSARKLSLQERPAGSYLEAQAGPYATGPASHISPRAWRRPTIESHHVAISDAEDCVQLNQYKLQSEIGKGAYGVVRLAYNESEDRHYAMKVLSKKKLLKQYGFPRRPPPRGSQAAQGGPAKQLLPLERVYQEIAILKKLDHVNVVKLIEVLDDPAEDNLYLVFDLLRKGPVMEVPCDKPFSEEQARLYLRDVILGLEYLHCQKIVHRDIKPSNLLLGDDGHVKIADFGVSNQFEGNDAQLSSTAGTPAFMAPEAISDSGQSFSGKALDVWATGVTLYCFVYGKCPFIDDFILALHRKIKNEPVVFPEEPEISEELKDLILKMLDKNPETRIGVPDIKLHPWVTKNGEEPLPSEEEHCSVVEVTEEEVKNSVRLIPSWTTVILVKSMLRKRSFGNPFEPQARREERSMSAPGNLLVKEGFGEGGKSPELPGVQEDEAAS
Experiment: KINOMEscan competition binding
Conditions: compound 10.0 µM
The entries below are paired with their reported kinase still bound, per cent of control.
Provide the reading as a plain figure in %.

CNC(=O)c1ccc(Nc2cc(Nc3ccccc3S(=O)(=O)C(C)C)c3cc[nH]c3n2)nc1    100

Reported kinase still bound, per cent of control of "NC(=O)Nc1cc(-c2cccc(F)c2)sc1C(=O)N[C@@H]1CCCNC1" : 7

Reported kinase still bound, per cent of control of "COc1cc2ncnc(-n3nc(-c4ccccn4)nc3N)c2cc1OC" : 17

Reported kinase still bound, per cent of control of "O=C1NC(=O)/C(=C/c2ccc3nccc(-c4ccncc4)c3c2)S1" : 12

====

Target: MAPK12 (human)
Experiment: KINOMEscan competition binding
Conditions: compound 10.0 µM
propertyLabel: kinase still bound, per cent of control (%)
Provide the reading as a plain figure in %.

Here are 5 molecules together with their reported answers.
NC(=O)Nc1cc(-c2cccc(F)c2)sc1C(=O)N[C@@H]1CCCNC1    89
O=C1NC(=O)/C(=C/c2ccc3nccc(-c4ccncc4)c3c2)S1    56
CCN1CCN(C(=O)Cc2ccc(Nc3ncc(F)c(Nc4ccc(C(=O)Nc5ccccc5Cl)cc4)n3)cc2)CC1    100
O=C(Nc1cccc(Nc2ncc(Br)c(NCCc3cnc[nH]3)n2)c1)N1CCCC1    65
O=c1cc(N2CCOCC2)oc2c(-c3cccc4c3sc3ccccc34)cccc12    99

// below: kinase still bound, per cent of control requested for another molecule
Reported kinase still bound, per cent of control of "C=CC(=O)Nc1ccc(CN(C(=O)Nc2c(Cl)c(OC)cc(OC)c2Cl)c2cc(Nc3ccc(N4CCN(C)CC4)cc3)ncn2)cc1" : 100

====

Target: MAP4K1 (human)
Assay: KINOMEscan competition binding
Conditions: compound 10.0 µM
propertyLabel: kinase still bound, per cent of control
State the result as a value with its unit after it.

CN(C)C/C=C/C(=O)Nc1ccc(C(=O)Nc2cccc(Nc3nccc(-c4cccnc4)n3)c2)cc1    100%
CS(=O)(=O)N1CCN(Cc2cc3nc(-c4cccc5[nH]ncc45)nc(N4CCOCC4)c3s2)CC1    100%
O=C(Nc1cccc(Nc2ncc(Br)c(NCCc3cnc[nH]3)n2)c1)N1CCCC1    13%

// below: kinase still bound, per cent of control requested for another compound
Entry "CNC(=O)c1ccc(Nc2cc(Nc3ccccc3S(=O)(=O)C(C)C)c3cc[nH]c3n2)nc1" ; assay system MAP4K1 (human); kinase still bound, per cent of control recorded at 7.9%

====

The entries below are paired with their reported kinase still bound, per cent of control.
Target: CDK19 (human)
Test: KINOMEscan competition binding
Settings: compound 10.0 µM
State the result as a value with its unit after it.

Here are 2 compounds together with their reported answers.
CNC(=O)c1cc(Oc2ccc(NC(=O)Nc3ccc(Cl)c(C(F)(F)F)c3)cc2)ccn1    1.4%
NC(=O)Nc1cc(-c2cccc(F)c2)sc1C(=O)N[C@@H]1CCCNC1    100%

Reported kinase still bound, per cent of control of "COc1ccc(N(C(=O)Oc2c(C)cccc2C)c2ccnc(Nc3ccc(N4CCN(C)CC4)cc3)n2)c(OC)c1" : 100%

Reported kinase still bound, per cent of control of "CNC(=O)c1ccc(Nc2cc(Nc3ccccc3S(=O)(=O)C(C)C)c3cc[nH]c3n2)nc1" : 100%

====

Target: UniProtKB O14733
Sequence (O14733 whole entry, looked up): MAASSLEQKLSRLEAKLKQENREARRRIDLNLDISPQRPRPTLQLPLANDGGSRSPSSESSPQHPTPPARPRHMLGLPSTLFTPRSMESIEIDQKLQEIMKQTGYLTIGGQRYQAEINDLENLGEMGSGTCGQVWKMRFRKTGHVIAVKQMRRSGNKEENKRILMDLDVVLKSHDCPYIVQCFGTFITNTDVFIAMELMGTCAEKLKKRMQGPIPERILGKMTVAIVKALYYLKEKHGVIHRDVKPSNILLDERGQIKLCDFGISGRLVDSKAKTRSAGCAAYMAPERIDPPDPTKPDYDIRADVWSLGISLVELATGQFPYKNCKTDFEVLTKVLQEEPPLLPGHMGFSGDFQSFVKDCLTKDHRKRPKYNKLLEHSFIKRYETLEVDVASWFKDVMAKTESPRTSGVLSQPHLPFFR
Experiment: KINOMEscan competition binding
Conditions: compound 10.0 µM
propertyLabel: kinase still bound, per cent of control (%)
Provide the reading as a plain figure in %.

Entry "CNC(=O)c1cc(Oc2ccc(NC(=O)Nc3ccc(Cl)c(C(F)(F)F)c3)cc2)ccn1" ; assay system UniProtKB O14733; kinase still bound, per cent of control recorded at 88

====

Tested on: FLT3 (human), P36888 [R834Q]
Experiment: KINOMEscan competition binding
Settings: compound 10.0 µM
Mark MET only for kinase still bound, per cent of control values smaller than 40%; exact matches and larger values are NOT MET.

N#Cc1cc(-c2ccnc(Nc3ccc(-n4cnc(-c5cccnc5)n4)cc3)n2)cc(N2CCOCC2)c1    NOT MET
Nc1ccc(-c2ccc3ncc4ccc(=O)n(-c5cccc(C(F)(F)F)c5)c4c3c2)cn1    MET
C=CC(=O)Nc1cc(-n2c(=O)ccc3cnc4ccc(-c5cn[nH]c5)cc4c32)ccc1C    MET
C[C@@H](Oc1cc(-c2cnn(C3CCNCC3)c2)cnc1N)c1c(Cl)ccc(F)c1Cl    MET

Query: # check: kinase still bound, per cent of control < 40% for "CCN1CCN(Cc2ccc(NC(=O)c3ccc(C)c(/C=C/c4cnc5[nH]ccc5c4OC)c3)cc2C(F)(F)F)CC1"
Response: NOT MET

Query: # check: kinase still bound, per cent of control < 40% for "CCN1CCN(C(=O)Cc2ccc(Nc3ncc(F)c(Nc4ccc(C(=O)Nc5ccccc5Cl)cc4)n3)cc2)CC1"
Response: MET

====

The entries below are paired with their reported kinase still bound, per cent of control.
Tested on: FLT3 (human), P36888 [R834Q]
Test: KINOMEscan competition binding
Conditions: compound 10.0 µM
Provide the reading as a plain figure in %.

COc1ccc(N(C(=O)Oc2c(C)cccc2C)c2ccnc(Nc3ccc(N4CCN(C)CC4)cc3)n2)c(OC)c1    26
COc1cc(N2CCN(C)CC2)ccc1Nc1nc(N)c(C(=O)c2c(Cl)cccc2Cl)s1    100
O=c1[nH]c2ccccc2n1C1CCN(Cc2ccc(-c3nc4cc5[nH]cnc5cc4nc3-c3ccccc3)cc2)CC1    100
O=C1Nc2ccc(I)cc2/C1=C/c1cc(Br)c(O)c(Br)c1    100
C=CC(=O)Nc1cccc(Nc2nc(N[C@H]3CC[C@H](N(C)C)CC3)nc3c2ncn3C(C)C)c1    8.4

Reported kinase still bound, per cent of control of "COc1cc2c(Nc3ccc(NC(=O)c4ccccc4)cc3)ncnc2cc1OCCCN1CCOCC1" : 34

Reported kinase still bound, per cent of control of "CN(C)C/C=C/C(=O)Nc1ccc(C(=O)Nc2cccc(Nc3nccc(-c4cccnc4)n3)c2)cc1" : 83

Reported kinase still bound, per cent of control of "CN(C)C/C=C/C(=O)Nc1cccc(Nc2ncc3c(n2)N(C)c2ccccc2C(=O)N3C)c1" : 37

Reported kinase still bound, per cent of control of "Cc1ccc2nc(NCCN)c3ncc(C)n3c2c1" : 100

Reported kinase still bound, per cent of control of CC1=C(C(=O)Nc2cc3cn[nH]c3cc2F)C(c2ccc(C(F)(F)F)cc2)CC(=O)N1 (stereo not given) : 77

Reported kinase still bound, per cent of control of "Cc1ccc(NC(=O)c2cccc(C(C)(C)C#N)c2)cc1Nc1ccc2ncn(C)c(=O)c2c1" : 100

Reported kinase still bound, per cent of control of "COc1cc2ncnc(Nc3cccc(Cl)c3)c2cc1OC" : 58

Reported kinase still bound, per cent of control of "COc1cc2ncnc(-n3nc(-c4ccccn4)nc3N)c2cc1OC" : 22

Reported kinase still bound, per cent of control of "CNC(=O)c1cc(Oc2ccc(NC(=O)Nc3ccc(Cl)c(C(F)(F)F)c3)cc2)ccn1" : 50

Reported kinase still bound, per cent of control of "NC(=O)Nc1cc(-c2cccc(F)c2)sc1C(=O)N[C@@H]1CCCNC1" : 5.6

====

The entries below are paired with their reported kinase still bound, per cent of control.
Target: UniProt:P24723
Sequence (P24723 whole entry, looked up): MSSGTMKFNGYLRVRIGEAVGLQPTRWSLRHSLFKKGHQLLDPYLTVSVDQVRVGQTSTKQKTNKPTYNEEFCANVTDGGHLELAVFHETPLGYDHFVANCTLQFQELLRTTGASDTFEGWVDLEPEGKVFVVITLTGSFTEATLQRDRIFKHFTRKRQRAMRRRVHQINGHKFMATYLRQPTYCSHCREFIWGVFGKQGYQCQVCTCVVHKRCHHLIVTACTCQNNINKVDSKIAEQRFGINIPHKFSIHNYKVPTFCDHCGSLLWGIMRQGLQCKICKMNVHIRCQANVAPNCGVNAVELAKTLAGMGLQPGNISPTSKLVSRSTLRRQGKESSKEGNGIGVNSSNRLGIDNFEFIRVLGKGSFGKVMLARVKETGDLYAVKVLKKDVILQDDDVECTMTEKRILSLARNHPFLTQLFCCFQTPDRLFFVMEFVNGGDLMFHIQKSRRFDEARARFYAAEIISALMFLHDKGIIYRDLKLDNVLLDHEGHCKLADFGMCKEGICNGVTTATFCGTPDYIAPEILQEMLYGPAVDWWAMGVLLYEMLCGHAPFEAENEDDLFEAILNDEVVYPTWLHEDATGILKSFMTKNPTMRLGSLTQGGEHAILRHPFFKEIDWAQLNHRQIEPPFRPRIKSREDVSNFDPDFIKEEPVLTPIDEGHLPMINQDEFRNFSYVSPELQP
Experiment: KINOMEscan competition binding
Conditions: compound 10.0 µM

CS(=O)(=O)N1CCN(Cc2cc3nc(-c4cccc5[nH]ncc45)nc(N4CCOCC4)c3s2)CC1    100%
CCN1CCN(C(=O)Cc2ccc(Nc3ncc(F)c(Nc4ccc(C(=O)Nc5ccccc5Cl)cc4)n3)cc2)CC1    100%
CNC(=O)c1ccc(Nc2cc(Nc3ccccc3S(=O)(=O)C(C)C)c3cc[nH]c3n2)nc1    100%
COc1cc2ncnc(-n3nc(-c4ccccn4)nc3N)c2cc1OC    100%
COc1ccc(N(C(=O)Oc2c(C)cccc2C)c2ccnc(Nc3ccc(N4CCN(C)CC4)cc3)n2)c(OC)c1    35%
O=C(Nc1cccc(Nc2ncc(Br)c(NCCc3cnc[nH]3)n2)c1)N1CCCC1    33%

Reported kinase still bound, per cent of control of "O=c1cc(N2CCOCC2)oc2c(-c3cccc4c3sc3ccccc34)cccc12" : 100%

Reported kinase still bound, per cent of control of "CCN(CC)CCCCNc1ncc2cc(-c3cc(OC)cc(OC)c3)c(NC(=O)NC(C)(C)C)nc2n1" : 100%

====

Molecular target: RPS6KA6 KD2 (human) (UniProt Q9UK32)
Sequence (Q9UK32 whole entry, looked up): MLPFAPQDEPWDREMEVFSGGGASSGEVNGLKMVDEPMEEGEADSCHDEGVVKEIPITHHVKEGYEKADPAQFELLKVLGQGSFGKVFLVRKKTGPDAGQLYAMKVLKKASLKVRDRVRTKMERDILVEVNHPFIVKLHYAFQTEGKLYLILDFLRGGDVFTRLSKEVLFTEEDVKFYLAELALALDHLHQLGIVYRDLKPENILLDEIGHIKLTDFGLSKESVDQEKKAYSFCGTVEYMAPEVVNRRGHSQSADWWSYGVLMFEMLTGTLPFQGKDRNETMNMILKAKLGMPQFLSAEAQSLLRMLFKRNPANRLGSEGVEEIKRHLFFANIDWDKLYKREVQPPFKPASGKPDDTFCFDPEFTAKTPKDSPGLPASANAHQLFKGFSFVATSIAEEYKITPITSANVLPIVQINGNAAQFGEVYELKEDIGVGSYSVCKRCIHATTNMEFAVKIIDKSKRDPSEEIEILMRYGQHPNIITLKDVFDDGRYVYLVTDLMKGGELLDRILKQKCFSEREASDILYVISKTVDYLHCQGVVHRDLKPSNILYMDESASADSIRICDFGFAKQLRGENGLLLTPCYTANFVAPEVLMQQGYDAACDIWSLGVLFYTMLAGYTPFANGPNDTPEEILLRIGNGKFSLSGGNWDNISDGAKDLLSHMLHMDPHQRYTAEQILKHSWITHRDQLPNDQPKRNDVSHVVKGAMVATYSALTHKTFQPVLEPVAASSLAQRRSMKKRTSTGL
Experiment: KINOMEscan competition binding
Conditions: compound 10.0 µM
The entries below are paired with their reported kinase still bound, per cent of control.
Provide the reading as a plain figure in %.

Here are 4 molecules together with their reported answers.
COc1cc2ncnc(-n3nc(-c4ccccn4)nc3N)c2cc1OC    6.2
O=C(Nc1cccc(Nc2ncc(Br)c(NCCc3cnc[nH]3)n2)c1)N1CCCC1    10
C=CC(=O)Nc1ccc(CN(C(=O)Nc2c(Cl)c(OC)cc(OC)c2Cl)c2cc(Nc3ccc(N4CCN(C)CC4)cc3)ncn2)cc1    100
COc1cc(N2CCN(C)CC2)ccc1Nc1ncc2c(n1)N(C)c1ccccc1C(=O)N2C    4.9

Reported kinase still bound, per cent of control of "NC(=O)Nc1cc(-c2cccc(F)c2)sc1C(=O)N[C@@H]1CCCNC1" : 1.2

Reported kinase still bound, per cent of control of "C=CC(=O)Nc1cc(-n2c(=O)ccc3cnc4ccc(-c5cn[nH]c5)cc4c32)ccc1C" : 67

Reported kinase still bound, per cent of control of "C[C@@H](Oc1cc(-c2cnn(C3CCNCC3)c2)cnc1N)c1c(Cl)ccc(F)c1Cl" : 35

Reported kinase still bound, per cent of control of "COc1ccc(N(C(=O)Oc2c(C)cccc2C)c2ccnc(Nc3ccc(N4CCN(C)CC4)cc3)n2)c(OC)c1" : 67

Reported kinase still bound, per cent of control of "COc1cc(C(=O)N2CCC(N3CCN(C)CC3)CC2)ccc1Nc1ncc2c(n1)N(C)c1ccccc1C(=O)N2C" : 2.2
